The entries below are paired with their reported Ki.
molecular target: human B2 bradykinin receptors (Homo sapiens); construct: purchased Receptor Biology, Inc. (Baltimore, MD); host or cells: CHO-K1 cells transfected with the human B2 receptor (membranes); test: Bradykinin B2 (BK2) Receptor Binding Assay; settings: membranes of CHO-K1 cells transfected with human B2 bradykinin receptors; ~0.25 nM [3H]NPC17731; 60 min at 25°C
Sequence (P30411 whole entry): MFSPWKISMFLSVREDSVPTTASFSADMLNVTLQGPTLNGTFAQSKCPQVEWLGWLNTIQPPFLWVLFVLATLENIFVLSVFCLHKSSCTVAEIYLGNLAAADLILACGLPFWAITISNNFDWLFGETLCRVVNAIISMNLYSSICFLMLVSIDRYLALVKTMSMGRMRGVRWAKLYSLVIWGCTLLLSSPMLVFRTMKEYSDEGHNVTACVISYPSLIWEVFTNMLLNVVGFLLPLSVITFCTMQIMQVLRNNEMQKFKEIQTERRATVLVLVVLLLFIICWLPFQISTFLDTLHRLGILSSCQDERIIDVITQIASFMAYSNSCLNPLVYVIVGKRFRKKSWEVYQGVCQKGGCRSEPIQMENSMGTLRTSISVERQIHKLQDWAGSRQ
Quick note: give the figure in nM, leave out the unit.

Worked cases, Ki given:
- Cc1ccc2cccc(OCc3c(Cl)ccc(N(C)C(=O)CCc4ccc(C(=O)c5cccs5)n4C)c3Cl)c2n1: 304
- Cc1ccc2cccc(OCc3c(Cl)ccc(N(C)C(=O)Cc4cc(C(=O)c5ccc(C#N)cc5)cs4)c3Cl)c2n1: 6.4
- Cc1nc2c(OCc3c(Cl)ccc(N(C)C(=O)Cc4ccc(C(=O)c5ccc(S(C)(=O)=O)cc5)n4C)c3Cl)cccn2c1Br: 68.5

# lookup: Ki of Cc1ccc2cccc(OCc3c(Cl)ccc(N(C)C(=O)Cc4ccc(C(=O)c5ccccc5N)n4C)c3Cl)c2n1
393

# lookup: Ki of Cc1ccc2cccc(OCc3c(C)ccc(N(C)C(=O)CCc4ccc(C(=O)c5ccc(C#N)cc5)n4C)c3C)c2n1
46

# lookup: Ki of Cc1ccc2cccc(OCc3c(Cl)ccc(N(C)C(=O)CCc4ccc(C(=O)c5ccncc5)n4C)c3Cl)c2n1
168

# lookup: Ki of Cc1ccc2cccc(OCc3c(Cl)ccc(N(C)C(=O)Cc4ccc(C(=O)c5ccc(C(F)(F)F)cc5)n4C)c3Cl)c2n1
476

Origin of measurements: patent EP1914236A1
